Test system: HSV-1
Test: Virucidal activity against HSV-1 in culture medium (MM)
Type: cell-based, Herpes simplex virus type 1
Settings: lipid 20 mM in MM, room temperature, 1 minute
Property Name: Reduction of virus titer,log10 HSV-1 (log10)
All answers are understood in log10, so give the number only.

molecule=CCCCCCCCCCCCCC(=O)O reported_result=0

Which Reduction of virus titer,log10 HSV-1 value belongs to CCCCCCCC(=O)OCC(O)CO (stereo not drawn) [Caprylic acid 1-monoglyceride, caprylic acid 1-monoglyceride] ? 0.5

What do you have for CCCCCC/C=C\CCCCCCCC(=O)OCC(O)CO (stereo not drawn) [Palmitoleic acid 1-monoglyceride, palmitoleic acid 1-monoglyceride] ? 0

What do you have for CCCCCCCCCCCC(=O)OCC(O)CO (stereo not drawn) [Lauric acid 1-monoglyceride, lauric acid 1-monoglyceride] ? 3.1

* * *

Here, each record is paired with measured Reduction of virus titer,log10 HSV-1 data.
Test system: HSV-1
Test: Virucidal activity against HSV-1 in culture medium (MM)
Assay type: cell-based, Herpes simplex virus type 1
Settings: lipid 10 mM in MM, room temperature, 1 minute
All answers are understood in log10, so give the number only.

Value wanted: Reduction of virus titer,log10 HSV-1 (HSV-1) of entry CCCCCC/C=C\CCCCCCCC(=O)OCC(O)CO (stereo not drawn) [Palmitoleic acid 1-monoglyceride, palmitoleic acid 1-monoglyceride] 0

What do you have for CCCCCCCCCCCC(=O)OCC(O)CO (stereo not drawn) [Lauric acid 1-monoglyceride, lauric acid 1-monoglyceride] ? 3.5

What do you have for CCCCCCCC(=O)OCC(O)CO (stereo not drawn) [Caprylic acid 1-monoglyceride, caprylic acid 1-monoglyceride] ? 0

What do you have for CCCCCCCCCCCCCC(=O)O [Myristic acid, myristic acid] ? 0

* * *

System: HSV-1
Experiment: Virucidal activity against HSV-1 in culture medium (MM)
Format: cell-based, Herpes simplex virus type 1
Conditions: lipid 20 mM in MM, room temperature, 1 minute
Here, each record is paired with measured Reduction of virus titer,log10 HSV-1 data.

molecule="CCCCCCCCCCCC(=O)O [Lauric acid, lauric acid]" property_name="Reduction of virus titer,log10 HSV-1" reported_result=">5.8 log10"

Which Reduction of virus titer,log10 HSV-1 value belongs to CCCCCCCCCC(=O)OCC(O)CO (centres unmarked) [Monocaprin, capric acid 1-monoglyceride] ? >5.8 log10

What do you have for CCCCCCCC/C=C\CCCCCCCC(=O)O [Oleic acid, oleic acid] ? <1.0 log10

What do you have for CCCCCCCC/C=C\CCCCCCCC(=O)OCC(O)CO (centres unmarked) [Oleic acid 1-monoglyceride, oleic acid 1-monoglyceride] ? <1.0 log10

What do you have for CCCCCCCCCC(=O)O [Capric acid, capric acid] ? <0.5 log10

* * *

System: HSV-1
Assay: Virucidal activity against HSV-1 in culture medium (MM)
Assay type: cell-based, Herpes simplex virus type 1
Conditions: lipid 10 mM in MM, room temperature, 1 minute
Property Name: Reduction of virus titer,log10 HSV-1

Consider the reported Reduction of virus titer,log10 HSV-1 for these molecules:
molecule="CCCCCCCC/C=C\\CCCCCCCC(=O)OCC(O)CO (centres unmarked) [Oleic acid 1-monoglyceride, oleic acid 1-monoglyceride]" reported_result="<1.0 log10"
molecule=CCCCCCCCCCCC(=O)O reported_result="<1.5 log10"
molecule="CCCCCCCCCC(=O)OCC(O)CO (centres unmarked) [Monocaprin, capric acid 1-monoglyceride]" reported_result=">5.3 log10"
molecule=CCCCCCCC/C=C\CCCCCCCC(=O)O reported_result="<1.0 log10"

Note: attention shifts to another entry.
Which Reduction of virus titer,log10 HSV-1 value belongs to CCCCCC/C=C\CCCCCCCC(=O)O ? >5.0 log10
